From: patent US20110294843A1

Assay: Pharmacokinetics of M6G at single and multiple intravenous doses in healthy volunteers
Assay type: in vivo, human
Conditions: both sexes, human, plasma, iv, 15 mg/70 kg, single 5 min iv infusion 15 mg; Geometric Mean
Assay Endpoint: clearance (mL/min)
Give bare numbers, in mL/min.

// clearance lookup, molecule = CN1CC[C@]23c4c5ccc(O)c4O[C@H]2[C@@H](OC2OC(C(=O)O)C(O)C(O)C2O)C=CC3[C@H]1C5 (stereo partly shown) , result: 131

---

Assay: Pharmacokinetics of M6G at single and multiple intravenous doses in healthy volunteers
Format: in vivo, human
Settings: both sexes, human, plasma, iv, 45 mg/70 kg, single 5 min iv infusion 45 mg; Geometric Mean; read-out: Vss
Assay Endpoint: Vd
Form field: result (number plus unit)

// Vd lookup, compound = CN1CC[C@]23c4c5ccc(O)c4O[C@H]2[C@@H](OC2OC(C(=O)O)C(O)C(O)C2O)C=CC3[C@H]1C5 (stereo partly shown) , result: 12.8 L

---

Test: Pharmacokinetics of M6G at single and multiple intravenous doses in healthy volunteers
Type: in vivo, human
Settings: both sexes, human, plasma, intravenous, 15 mg/70 kg, multiple dose, Dose 1-15 mg; Median; read-out: AUC0-∞
Assay Endpoint: AUC(0-inf) (ng·h/mL)
Give bare numbers, in ng·h/mL.

// AUC(0-inf) lookup, molecule = CN1CC[C@]23c4c5ccc(O)c4O[C@H]2[C@@H](OC2OC(C(=O)O)C(O)C(O)C2O)C=CC3[C@H]1C5 (stereo partly shown) , result: 2210

---

Assay: Pharmacokinetics of M6G at single and multiple intravenous doses in healthy volunteers
Format: in vivo, human
Details: both sexes, human, plasma, iv, 45 mg/70 kg, single 5 min iv infusion 45 mg; Median; read-out: Cmax
Assay Endpoint: Cmax (ng/mL)
One number for each entry, in ng/mL.

// Cmax lookup, compound = CN1CC[C@]23c4c5ccc(O)c4O[C@H]2[C@@H](OC2OC(C(=O)O)C(O)C(O)C2O)C=CC3[C@H]1C5 (stereo partly shown) [M6G] , result: 5860

---

Test: Pharmacokinetics of M6G at single and multiple intravenous doses in healthy volunteers
Format: in vivo, human
Conditions: both sexes, human, plasma, intravenous, 15 mg/70 kg, multiple dose, Dose 1-15 mg; Mean; read-out: AUC0-∞
Assay Endpoint: AUC(0-inf) (ng·h/mL)
One number for each entry, in ng·h/mL.

// AUC(0-inf) lookup, compound = CN1CC[C@]23c4c5ccc(O)c4O[C@H]2[C@@H](OC2OC(C(=O)O)C(O)C(O)C2O)C=CC3[C@H]1C5 (stereo partly shown) [M6G] , result: 2130

---

Assay: Pharmacokinetics of M6G at single and multiple intravenous doses in healthy volunteers
Type: in vivo, human
Settings: both sexes, human, plasma, 15 mg/70 kg; 6 hours after each dose, 15 mg 6-hourly iv; read-out: trough levels
Assay Endpoint: concentration at 6 h (ng/mL)
Give bare numbers, in ng/mL.

// concentration at 6 h lookup, compound = CN1CC[C@]23c4c5ccc(O)c4O[C@H]2[C@@H](OC2OC(C(=O)O)C(O)C(O)C2O)C=CC3[C@H]1C5 (stereo partly shown) , result: 63.9

---

Test: Pharmacokinetics of M6G at single and multiple intravenous doses in healthy volunteers
Assay type: in vivo, human
Conditions: both sexes, human, plasma, intravenous, 15 mg/70 kg, multiple dose, Dose 1-15 mg; Mean; read-out: t1/2 (converted)
Protocol: Healthy male and female subjects were divided into two groups (A and B) with 12 in each. Group A received three single intravenous infusions of M6G over 5 mins at levels of 15, 30 and 45 mg/70 kg in random order, having taken 50 mg of naloxone orally 24 hrs beforehand. […] Vital signs (supine blood pressure, pulse, respiratory rate and oral temperature), respiration rate, pulse oximetry and adverse events were monitored during the study. Plasma levels of M6G were measured using HPLC/ms/ms.
Assay Endpoint: half-life (h)
One number for each entry, in h.

// half-life lookup, compound = CN1CC[C@]23c4c5ccc(O)c4O[C@H]2[C@@H](OC2OC(C(=O)O)C(O)C(O)C2O)C=CC3[C@H]1C5 (stereo partly shown) [M6G] , result: 1.73
